measured.on: 5-hydroxytryptamine receptor 1A (Homo sapiens, UniProt P08908)
Sequence (P08908 whole entry): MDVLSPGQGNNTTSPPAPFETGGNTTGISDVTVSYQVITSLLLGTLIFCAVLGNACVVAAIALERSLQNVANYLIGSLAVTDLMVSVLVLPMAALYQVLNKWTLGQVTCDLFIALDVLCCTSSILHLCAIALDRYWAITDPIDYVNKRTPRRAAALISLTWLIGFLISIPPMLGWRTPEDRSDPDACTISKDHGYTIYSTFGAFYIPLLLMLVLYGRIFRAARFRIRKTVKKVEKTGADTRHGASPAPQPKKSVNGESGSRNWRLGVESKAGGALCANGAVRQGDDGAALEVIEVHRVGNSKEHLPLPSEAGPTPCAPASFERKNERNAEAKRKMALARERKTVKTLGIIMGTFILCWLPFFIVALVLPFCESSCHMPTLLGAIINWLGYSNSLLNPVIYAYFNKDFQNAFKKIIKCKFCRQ
procedure.text: biochemical
Description: Displacement of [3H]-8-OH-DPAT from human 5HT1A receptor expressed in HeLa cells
For each of the molecules below, state its Ki.
Numbers only; they are read as nM.

Ask | Tell me its Ki on 5-hydroxytryptamine receptor 1A (Homo sapiens, UniProt P08908): O=C1NCc2ccc(OCCCN3CCN(c4cccc5cccc(F)c45)CC3)cc21
Reply | 0.0141

Ask | Look up and report Ki, with 5-hydroxytryptamine receptor 1A (Homo sapiens, UniProt P08908) as system, for O=C1NCc2ccc(OCCCCN3CCN(c4cccc5ccc(F)cc45)CC3)cc21
Reply | 0.838

Ask | Give Ki; test system 5-hydroxytryptamine receptor 1A (Homo sapiens, UniProt P08908); molecule O=C1NCc2ccc(OCCCCN3CCN(c4cccc5c4CCOC5)CC3)cc21
Reply | 1.99

Ask | Report Ki on 5-hydroxytryptamine receptor 1A (Homo sapiens, UniProt P08908) for this entry: O=C1NCc2ccc(OCCCN3CCN(c4cccc5ccccc45)CC3)cc21
Reply | 0.0152

Ask | Give the observed Ki of O=C1NCc2ccc(OCCCN3CCN(c4cccc5ccc(F)cc45)CC3)cc21 for 5-hydroxytryptamine receptor 1A (Homo sapiens, UniProt P08908).
Reply | 0.0447

Ask | Quote 5-hydroxytryptamine receptor 1A (Homo sapiens, UniProt P08908) Ki for entry c1ccc2c(N3CCN(CCCOc4ccc5c(c4)CNC5)CC3)cccc2c1 .
Reply | 0.149

Ask | Provide Ki, system 5-hydroxytryptamine receptor 1A (Homo sapiens, UniProt P08908), entry O=C1NCc2ccc(OCCCCN3CCN(c4cccc5cc(F)ccc45)CC3)cc21
Reply | 13.4

====

measured.on: UniProt P31645
procedure.text: Displacement of [3H]-citalopram from human serotonin transporter expressed in HEK 293 cells by scintillation proximity assay
Assay type: cell-based, HEK293
pKi: −log10 of the molar value.
Parameter threshold = 7. Response is satisfied when pKi meets or exceeds it, else not satisfied.

Ask | Form field: pKi at least 7? Entry: O=C1NCc2ccc(OCCCCN3CCN(c4cccc5ccccc45)CC3)cc21
Reply | not satisfied

Ask | Does the reported pKi for Cc1cc2c(cc1OCCCN1CCN(c3cccc4cccc(F)c34)CC1)C(=O)NC2 fall at or above the 7 mark?
Reply | not satisfied

Ask | Tell me whether pKi is at least 7 here: O=C1NCc2cc(F)c(OCCCCN3CCN(c4cccc5cc(F)ccc45)CC3)cc21
Reply | satisfied

Ask | Reported pKi at or above 7? Cc1cc2c(cc1OCCCN1CCN(c3cccc4cc(F)ccc34)CC1)C(=O)NC2
Reply | satisfied

Ask | Decide: is the reported value of pKi for O=C1NCc2ccc(OCCCN3CCN(c4cccc5cc(F)ccc45)CC3)c(F)c21 equal to or greater than 7?
Reply | satisfied

Ask | pKi >= 7 for Cc1c(OCCCCN2CCN(c3cccc4cccc(F)c34)CC2)ccc2c1C(=O)NC2 ?
Reply | not satisfied

Ask | Determine whether this compound has pKi no lower than 7: Cc1cc2c(cc1OCCCCN1CCN(c3cccc4cc(F)ccc34)CC1)C(=O)NC2
Reply | satisfied

Ask | Has O=C1NCc2ccc(OCCCCN3CCN(c4cccc5cccc(F)c45)CC3)c(Cl)c21 a recorded pKi greater than or equal to 7?
Reply | not satisfied

Ask | Hi team, for O=C1NCc2cc(Cl)c(OCCCN3CCN(c4cccc5cccc(F)c45)CC3)cc21 , is the recorded pKi at or above 7?
Reply | satisfied

====

Exercise: state measured Ki for each of the compounds provided.
measured.on: Sodium-dependent serotonin transporter (Homo sapiens, UniProt P31645)
Sequence (P31645 whole entry): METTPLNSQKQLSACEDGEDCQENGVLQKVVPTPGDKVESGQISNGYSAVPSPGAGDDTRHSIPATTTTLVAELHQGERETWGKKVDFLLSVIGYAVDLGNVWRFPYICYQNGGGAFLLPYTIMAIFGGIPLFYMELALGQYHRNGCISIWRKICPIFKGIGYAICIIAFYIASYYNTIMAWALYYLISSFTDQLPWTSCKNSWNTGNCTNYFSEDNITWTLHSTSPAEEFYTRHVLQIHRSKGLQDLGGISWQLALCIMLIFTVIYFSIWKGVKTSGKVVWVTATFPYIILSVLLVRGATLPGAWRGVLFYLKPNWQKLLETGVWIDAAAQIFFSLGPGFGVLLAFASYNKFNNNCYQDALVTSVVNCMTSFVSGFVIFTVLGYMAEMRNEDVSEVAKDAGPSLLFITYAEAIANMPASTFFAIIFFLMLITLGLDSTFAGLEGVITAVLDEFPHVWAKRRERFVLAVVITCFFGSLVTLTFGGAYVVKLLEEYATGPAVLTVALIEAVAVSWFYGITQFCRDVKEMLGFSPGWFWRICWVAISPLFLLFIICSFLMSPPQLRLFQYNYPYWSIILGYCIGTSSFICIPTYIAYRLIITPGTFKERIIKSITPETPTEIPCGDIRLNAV
procedure.text: Displacement of [3H]-citalopram from human serotonin transporter expressed in HEK 293 cells by scintillation proximity assay
Type: cell-based, HEK293
Write your answer as a measured quantity: the number, then the unit.

Ask | Param request: Ki | system Sodium-dependent serotonin transporter (Homo sapiens, UniProt P31645) | item O=C1NCc2ccc(OCCCN3CCN(c4cccc5cccc(F)c45)CC3)c(Cl)c21
Reply | 230 nM

Ask | Give reported Ki for Cc1c(OCCCN2CCN(c3cccc4cc(F)ccc34)CC2)ccc2c1C(=O)NC2 (Sodium-dependent serotonin transporter (Homo sapiens, UniProt P31645))
Reply | 21.4 nM

Ask | Report its Ki with Sodium-dependent serotonin transporter (Homo sapiens, UniProt P31645) as the test system: O=C1NCc2ccc(OCCCN3CCN(c4cccc5ccc(F)cc45)CC3)c(F)c21
Reply | 447 nM

Ask | Supply Ki measured with Sodium-dependent serotonin transporter (Homo sapiens, UniProt P31645) for O=C1NCc2cc(Cl)c(OCCCCN3CCN(c4cccc5cccc(F)c45)CC3)cc21 .
Reply | 45.6 nM

Ask | Would you please give the reported Ki of O=C1NCc2ccc(OCCCN3CCN(c4cccc5ccccc45)CC3)c(Cl)c21 with Sodium-dependent serotonin transporter (Homo sapiens, UniProt P31645)?
Reply | 104 nM

Ask | State the measured Ki (Sodium-dependent serotonin transporter (Homo sapiens, UniProt P31645)) of Cc1cc2c(cc1OCCCCN1CCN(c3cccc4cccc(F)c34)CC1)C(=O)NC2
Reply | 118 nM

Ask | Lab note: Sodium-dependent serotonin transporter (Homo sapiens, UniProt P31645) assay, enter Ki for Cc1cc2c(cc1OCCCN1CCN(c3cccc4ccccc34)CC1)C(=O)NC2 here
Reply | 1040 nM

Ask | Report Ki from Sodium-dependent serotonin transporter (Homo sapiens, UniProt P31645) testing of Cc1cc2c(cc1OCCCCN1CCN(c3cccc4ccccc34)CC1)C(=O)NC2
Reply | 504 nM

Ask | Recall the reported Ki of O=C1NCc2ccc(OCCCCN3CCN(c4cccc5cccc(F)c45)CC3)c(F)c21 on Sodium-dependent serotonin transporter (Homo sapiens, UniProt P31645) and write it down.
Reply | 48.1 nM

Ask | Find the measured Ki of Cc1c(OCCCN2CCN(c3cccc4ccccc34)CC2)ccc2c1C(=O)NC2 with Sodium-dependent serotonin transporter (Homo sapiens, UniProt P31645) as test system.
Reply | 194 nM

Ask | State recorded Ki with Sodium-dependent serotonin transporter (Homo sapiens, UniProt P31645), entry Cc1c(OCCCN2CCN(c3cccc4cccc(F)c34)CC2)ccc2c1C(=O)NC2 , no comment.
Reply | 437 nM

Ask | Write Ki of O=C1NCc2cc(F)c(OCCCN3CCN(c4cccc5ccc(F)cc45)CC3)cc21 ; system used: Sodium-dependent serotonin transporter (Homo sapiens, UniProt P31645)
Reply | 419 nM

====

measured.on: 5-hydroxytryptamine receptor 1A (Homo sapiens)
procedure.text: Intrinsic activity at human […] 5HT1A receptor expressed in HeLa cells by [3H]-thymidine uptake assay
Type: cell-based
assay.metric: Intrinsic activity (%)
Field: numeric (%). Do not append units.

Ask | Please report Intrinsic activity for the following compound: O=C1NCc2ccc(OCCCN3CCN(c4cccc5ccccc45)CC3)cc21
Reply | 88.8

Ask | Supply reported Intrinsic activity belonging to this compound: Fc1ccc2cccc(N3CCN(CCCOc4ccc5c(c4)CNC5)CC3)c2c1
Reply | 73.3

Ask | Could you please provide reported Intrinsic activity for O=C1NCc2ccc(OCCCCN3CCN(c4cccc5ccccc45)CC3)cc21 ? Thanks!
Reply | 66.7

Ask | Check the records and state Intrinsic activity for c1ccc2c(N3CCN(CCCOc4ccc5c(c4)CNC5)CC3)cccc2c1
Reply | 77.8

====

measured.on: 5-hydroxytryptamine receptor 2A (Homo sapiens, UniProt P28223)
Sequence (P28223 whole entry): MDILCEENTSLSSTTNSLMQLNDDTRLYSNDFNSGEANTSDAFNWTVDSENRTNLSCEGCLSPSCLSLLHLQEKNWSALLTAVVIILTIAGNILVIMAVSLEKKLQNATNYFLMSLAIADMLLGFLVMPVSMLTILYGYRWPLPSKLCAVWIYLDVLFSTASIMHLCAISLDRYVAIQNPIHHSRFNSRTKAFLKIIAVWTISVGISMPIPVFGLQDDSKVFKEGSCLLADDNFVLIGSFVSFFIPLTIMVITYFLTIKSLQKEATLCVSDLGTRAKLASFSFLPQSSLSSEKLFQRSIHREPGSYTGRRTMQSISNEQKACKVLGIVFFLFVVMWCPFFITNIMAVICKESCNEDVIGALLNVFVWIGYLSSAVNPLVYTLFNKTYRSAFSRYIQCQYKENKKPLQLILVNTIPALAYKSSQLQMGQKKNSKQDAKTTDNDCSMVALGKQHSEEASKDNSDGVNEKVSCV
pKi: −log10 of the molar value.
Please mark 1 if the recorded pKi is equal to or greater than 8, and -1 if it falls below.

Ask | Reported pKi at or above 8? Cc1cc2c(cc1OCCCN1CCN(c3cccc4cc(F)ccc34)CC1)C(=O)NC2
Reply | -1

Ask | In plain terms: is recorded pKi at least 8 for O=C1NCc2cc(F)c(OCCCN3CCN(c4cccc5cc(F)ccc45)CC3)cc21 ?
Reply | -1

Ask | For this compound, is measured pKi 8 or higher? O=C1NCc2ccc(OCCCN3CCN(c4cccc5cc(F)c(F)cc45)CC3)cc21
Reply | -1

Ask | Is pKi for O=C1NCc2ccc(OCCCCN3CCN(c4cccc5cccc(F)c45)CC3)c(F)c21 at or above 8?
Reply | 1

Ask | // inclusive: pKi at least 8? input: Cc1cc2c(cc1OCCCCN1CCN(c3cccc4cccc(F)c34)CC1)C(=O)NC2
Reply | -1

Ask | Confirm if pKi reported for the compound O=C1NCc2ccc(OCCCCN3CCN(c4cccc5c4CCCC5)CC3)cc21 is 8 or above.
Reply | 1

Ask | Is pKi at least 8? Consider O=C1NCc2ccc(OCCCN3CCN(c4cccc5ccccc45)CC3)c(F)c21
Reply | 1

Ask | Can Cc1cc2c(cc1OCCCCN1CCN(c3cccc4cc(F)ccc34)CC1)C(=O)NC2 be said to have pKi at or above 8?
Reply | -1

Ask | Does the reported pKi for O=C1NCc2cc(Cl)c(OCCCN3CCN(c4cccc5ccccc45)CC3)cc21 fall at or above the 8 mark?
Reply | -1

Ask | Is it the case that O=C1NCc2cc(Cl)c(OCCCCN3CCN(c4cccc5ccccc45)CC3)cc21 has pKi reaching or exceeding 8?
Reply | -1

Ask | Is pKi for O=C1NCc2cc(F)c(OCCCCN3CCN(c4cccc5cccc(F)c45)CC3)cc21 at or above 8?
Reply | 1

Ask | Say whether O=C1NCc2ccc(OCCCN3CCN(c4cccc5cc(F)ccc45)CC3)c(F)c21 shows pKi of 8 or more.
Reply | 1

Ask | API: above_or_equal(metric=pKi, cutoff=8) for item O=C1NCc2ccc(OCCCN3CCN(c4cccc5ccc(F)cc45)CC3)c(F)c21
Reply | 1

Ask | Quick check: does O=C1NCc2ccc(OCCCN3CCN(c4cccc5cccc(F)c45)CC3)c(F)c21 have pKi greater than or equal to 8?
Reply | 1

Ask | Is it the case that O=C1NCc2ccc(OCCCN3CCN(c4cccc5ccc(F)cc45)CC3)cc21 has pKi reaching or exceeding 8?
Reply | 1

Ask | Is reported pKi greater than or equal to 8 here: O=C1NCc2ccc(OCCCCN3CCN(c4cccc5ccc(F)cc45)CC3)c(F)c21
Reply | 1

Ask | Is reported pKi greater than or equal to 8 here: Fc1ccc2cccc(N3CCN(CCCCOc4ccc5c(c4)CNC5)CC3)c2c1
Reply | 1

Ask | Reported pKi reaches at least 8 for Cc1c(OCCCCN2CCN(c3cccc4ccccc34)CC2)ccc2c1C(=O)NC2 ?
Reply | 1

Ask | Exam item: decide whether the reported pKi for O=C1NCc2cc(F)c(OCCCN3CCN(c4cccc5cccc(F)c45)CC3)cc21 is at least 8.
Reply | 1

Ask | Textbook exercise: given the entry O=C1NCc2ccc(OCCCN3CCN(c4cccc5cc(F)ccc45)CC3)cc21 , state whether its pKi is greater than or equal to 8.
Reply | 1

Hello, the source for this data is ChEMBL document CHEMBL1255556, in case you need it.
